MEASURED TARGET: Vitamin D3 receptor (Homo sapiens, UniProt P11473)
Sequence (P11473 whole entry): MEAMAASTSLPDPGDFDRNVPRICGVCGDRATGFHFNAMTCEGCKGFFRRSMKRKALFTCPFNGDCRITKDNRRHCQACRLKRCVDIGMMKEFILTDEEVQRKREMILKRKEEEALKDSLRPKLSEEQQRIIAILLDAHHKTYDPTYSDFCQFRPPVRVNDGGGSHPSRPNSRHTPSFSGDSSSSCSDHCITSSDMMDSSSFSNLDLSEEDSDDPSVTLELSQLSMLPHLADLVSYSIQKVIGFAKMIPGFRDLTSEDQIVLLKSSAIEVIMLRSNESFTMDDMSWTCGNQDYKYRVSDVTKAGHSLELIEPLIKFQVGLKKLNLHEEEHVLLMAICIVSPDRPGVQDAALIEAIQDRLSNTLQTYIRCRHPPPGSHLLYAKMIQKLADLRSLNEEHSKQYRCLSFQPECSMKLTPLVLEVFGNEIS
What follows is literature data on IC50 for Vitamin D3 receptor (Homo sapiens, UniProt P11473).
Using IC50 as the sorting value, the categories are one: < 10 nM; two: ≥ 10 nM and < 90 nM; three: ≥ 90 nM

C=C1[C@H](O)CC(=C/C=C2\CCC[C@]3(C)[C@@H]([C@H](C)[C@H](CC)CCCO)CC[C@@H]23)C[C@H]1O	one
C=C1[C@H](O)CC(=C/C=C2\CCC[C@]3(C)[C@@H]([C@H](C)[C@H](CC)CC(C)(C)O)CC[C@@H]23)C[C@H]1O	one
C[C@H](CCCCNS(=O)(=O)C(F)(F)F)[C@H]1CC[C@H]2/C(=C/C=C3C[C@@H](O)C[C@H](O)C3)CCC[C@]12C	two
C=C1/C(=C\C=C(/CC)c2cccc(CCC#CCC(O)(C(F)(F)F)C(F)(F)F)c2)C[C@@H](O)C[C@@H]1O	one
C=C1[C@H](O)CC(=C/C=C2\CCC[C@]3(C)[C@@H]([C@H](C)[C@H](CC)CCC(C)(C)O)CC[C@@H]23)C[C@H]1O	one

GET /class?item= CCN(CC)CCNC(=O)c1cc(C(CC)(CC)c2ccc(C#CC(O)(CC)CC)c(C)c2)cn1CC two

Category of C=C1[C@H](O)CC(=C/C=C2\CCC[C@]3(C)[C@@H]([C@@H](C)OC[C@H](C)C(C)(C)O)CC[C@@H]23)C[C@H]1O , please. two

Into which category would you place CCn1c(C(=O)NCCCN(C)C)ccc1C(CC)(CC)c1ccc(OCC(O)C(C)(C)C)c(C)c1 (stereo not given) ? three

Assign a bin to CC[C@@H](C)[C@H](NC(=O)c1ccc(C(CC)(CC)c2ccc(OCC(O)C(C)(C)C)c(C)c2)n1CC)C(=O)O (stereo not given in full) three

Dear colleague, I would appreciate it if you could identify the bin for C=C1[C@H](O)CC(=C/C=C2\CCC[C@]3(C)[C@@H]([C@H](C)CC#C[C@H](O)CC45CC6CC(CC(C6)C4)C5)CC[C@@H]23)C[C@H]1O and reply at your convenience. two

# bin lookup: classify CCn1c(C(=O)NCCN)ccc1C(CC)(CC)c1ccc(OCC(=O)C(C)(C)C)c(C)c1 by its IC50 three

Classify this compound: C[C@H](CCCCNS(N)(=O)=O)[C@H]1CC[C@H]2/C(=C/C=C3C[C@@H](O)C[C@H](O)C3)CCC[C@]12C three

Quick check: band for C=C1/C(=C\C=C2/CC[C@@H](CCCCCCC(C)(C)O)[C@]3(C)[C@@H]([C@H](C)CO)CC[C@@H]23)C[C@@H](O)C[C@@H]1O two
